Values compiled from ChEMBL document CHEMBL5154914.

# measurement protocol: Elimination half life in BALB/c mouse infected with Influenza A A/WSN/33 (H1N1) virus at 10 mg/kg, iv measured after 24 hrs by LC-MS analysis
# Assay type: ADME, organism-based
# measurement parameters: in vivo, read-out: LambdaZ (converted)
measurement type: half-life (h)
The answer is to be given in h; state only the numeric part.

Please give the measured half-life for this compound: Cc1ncsc1-c1ccc(CNC(=O)[C@@H]2CCCN2C(=O)[C@@H](NC(=O)CCOCCOCCOCCNC(=O)[C@]23CCC(C)(C)C[C@H]2C2=CC[C@@H]4[C@@]5(C)CC[C@H](O)C(C)(C)[C@@H]5CC[C@@]4(C)[C@]2(C)CC3)C(C)(C)C)cc1 2.87
